target: Sialic acid-binding Ig-like lectin 9 (Homo sapiens) (UniProt Q9Y336); test: Hs-Siglec9 ALPHAscreen SOP 20170721; set-up: scale not given: direction of the effect not stated beside the values; conditions: 10 µM
Sequence (Q9Y336 whole entry): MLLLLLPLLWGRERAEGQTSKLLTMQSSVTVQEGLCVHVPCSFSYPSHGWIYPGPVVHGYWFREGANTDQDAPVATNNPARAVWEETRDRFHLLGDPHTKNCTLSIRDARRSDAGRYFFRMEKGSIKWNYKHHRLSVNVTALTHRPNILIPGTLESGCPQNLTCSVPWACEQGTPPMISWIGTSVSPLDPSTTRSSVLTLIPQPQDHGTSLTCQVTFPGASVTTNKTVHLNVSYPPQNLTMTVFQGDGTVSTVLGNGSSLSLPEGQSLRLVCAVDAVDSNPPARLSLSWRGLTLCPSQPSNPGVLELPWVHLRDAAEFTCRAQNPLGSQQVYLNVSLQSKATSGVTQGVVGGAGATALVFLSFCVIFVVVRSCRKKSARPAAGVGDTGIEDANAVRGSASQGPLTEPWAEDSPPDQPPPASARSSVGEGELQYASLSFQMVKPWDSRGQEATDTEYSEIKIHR
Percent Effect overview
measured_quantity: Percent Effect (%)

> print(dat)
                                   molecule  measured.quantity  unit.info  data.value
1  CC(Cc1c(F)cccc1F)NC(=O)Nc1cnn(CC(N)=O)c1 (stereo unspecified)     Percent Effect          %     -0.0747
2  COCCO[C@@H]1C[C@H]2CN(C(=O)c3ccc(C)nc3)CCN2C1     Percent Effect          %        3.06
3  CS(=O)(=O)N1CCC(C(=O)N2CCC3(CC2)OCCCO3)CC1     Percent Effect          %       -12.3
4  O=C(Cc1ccc(F)cc1)N1CCN(CC(O)C2CC2)CC1 (stereo unspecified)     Percent Effect          %        -4.1
5  COc1cc(OC)c(C2SCC(=O)Nc3n[nH]cc32)cc1OC (stereo unspecified)     Percent Effect          %       0.428
6  Fc1cnc(N2CCO[C@H]3CN(CC4CCC4)C[C@H]32)nc1     Percent Effect          %       0.543

Sourced from ChEMBL document CHEMBL3988442
